meta.source: ChEMBL document CHEMBL2062525

# method.summary: Cytotoxicity against human melanoma cells after 48 hrs
# Type: functional
# experimental.setup: Melanoma cell
Structures can show the parent of a compound that is named as a salt.
Items are presented alongside their recorded log10 of GI50.
readout.name: log10 of GI50 (log10 of the value in nM)

[[record]]
molecule = "O=C1Nc2ccc(Cl)cc2C1=Cc1c(-c2ccccn2)nc2sccn12 (mixture of isomers)"
readout_name = "log10 of GI50"
reported_result = 2.83

[[record]]
molecule = "COc1nc2sccn2c1/C=C1/C(=O)Nc2ccc(Cl)cc21"
readout_name = "log10 of GI50"
reported_result = 3.57

[[record]]
molecule = "COc1ccc2c(c1)C(=Cc1c(OC)nc3sccn13)C(=O)N2 (mixture of isomers)"
readout_name = "log10 of GI50"
reported_result = 1.60

[[record]]
molecule = "COc1nc2sccn2c1/C=C1/C(=O)Nc2cccc(Cl)c21"
readout_name = "log10 of GI50"
reported_result = 3.69

[[record]]
molecule = "O=C1Nc2ccccc2/C1=C\\c1c(-c2ccccn2)nc2sccn12"
readout_name = "log10 of GI50"
reported_result = 3.39

[[record]]
molecule = "COc1cc(-c2nc3sc(C)cn3c2/C=C2/C(=O)Nc3ccccc32)c(Br)c(OC)c1OC"
readout_name = "log10 of GI50"
reported_result = 4.47

[[record]]
molecule = "CC[C@]1(O)C[C@H]2CN(CCc3c([nH]c4ccccc34)[C@@](C(=O)OC)(c3cc4c(cc3OC)N(C=O)[C@H]3[C@@](O)(C(=O)OC)[C@H](OC(C)=O)[C@]5(CC)C=CCN6CC[C@]43[C@@H]65)C2)C1 [VINCRISTINE SULFATE]"
readout_name = "log10 of GI50"
reported_result = 2.20

[[record]]
molecule = "Cc1nn2c(/C=C3/C(=O)Nc4c3ccc3ccccc43)c(C)nc2s1"
readout_name = "log10 of GI50"
reported_result = 2.83

[[record]]
molecule = "Cc1ccc(-c2nc3sc(C)cn3c2/C=C2/C(=O)Nc3cc(C)c(O)cc32)cc1"
readout_name = "log10 of GI50"
reported_result = 4.53

[[record]]
molecule = "Cc1nn2c(/C=C3/C(=O)Nc4ccc(F)cc43)c(-c3ccc(Cl)cc3)nc2s1"
readout_name = "log10 of GI50"
reported_result = 4.82

[[record]]
molecule = "COc1nc2sccn2c1/C=C1/C(=O)Nc2ccccc21"
readout_name = "log10 of GI50"
reported_result = 2.67

[[record]]
molecule = "COc1ccc2c(c1)C(=Cc1c(OC)nc3sccn13)C(=O)N2C (mixture of isomers)"
readout_name = "log10 of GI50"
reported_result = 2.90

[[record]]
molecule = "COc1nc2sccn2c1/C=C1/C(=O)Nc2cc(Cl)ccc21"
readout_name = "log10 of GI50"
reported_result = 2.32

[[record]]
molecule = "Cc1cn2c(/C=C3/C(=O)Nc4cc(Cl)ccc43)c(C)nc2s1"
readout_name = "log10 of GI50"
reported_result = 3.20

[[record]]
molecule = "COc1ccc2c(c1)/C(=C\\c1c(-c3ccccn3)nc3sccn13)C(=O)N2"
readout_name = "log10 of GI50"
reported_result = 1.30

[[record]]
molecule = "Cc1cn2c(/C=C3/C(=O)Nc4c3ccc3ccccc43)c(C)nc2s1"
readout_name = "log10 of GI50"
reported_result = 2.15

[[record]]
molecule = "COc1nc2sccn2c1/C=C1/C(=O)N(C)c2ccccc21"
readout_name = "log10 of GI50"
reported_result = 3.94

